src = PubChem BioAssay (EPA / NIEHS)

Test: BSK_BE3C_SRB: Viability Assessment in the BioMAP Diversity Plus: BE3C Assay (AID 2283028)
Settings: primary human bronchial epithelial cells
Calls of active or inactive are those of the source. Rule for the calls: active = hit-call score of the fitted dose curve at least 0.9, where 1 is the maximum; inactive = score below 0.9.
Give one outcome, nothing more. List: yes = active, no = inactive

Exam item: Dear all, I need the recorded test outcome for CS(=O)(=O)c1ccc([C@@H](C[C@H]2CCC(=O)C2)C(=O)Nc2cnccn2)cc1Cl , thank you.
Marked response: no

* * *

Biological target: X-box-binding protein 1 (Homo sapiens)
Experiment: ATG_Xbp1_CIS: Attagene CIS-FACTORIAL HepG2 Assay for human X-box Binding Protein 1 (XBP1) (AID 2282972)
Conditions: HepG2 XBP1 cis-element reporter, Attagene multiplex; actives raise or lower the signal
Activity calls are given as the source filed them. How the source made its calls: active means hit-call score of the fitted dose curve at least 0.9, where 1 is the maximum; inactive means score below 0.9.
Your response should consist of one outcome taken from yes = active, no = inactive

These solved cases illustrate the format of a correct answer.
[[record]]
structure_string = "Cc1ccc(C(C)(C)C)c(O)c1"
label_class = "yes"

[[record]]
structure_string = "Cc1cc(Cc2ccc(N)c(C)c2)ccc1N"
label_class = "no"


Exam item: Which outcome was assigned to CCc1cc(C2=C(C(=O)O)N(c3ccccc3C(F)(F)F)S(=O)(=O)c3ccccc32)cc2c1OCO2 in this test?
Marked response: no

* * *

Molecular target: Myc proto-oncogene protein (Homo sapiens) (UniProt P01106)
Sequence (P01106 whole entry, looked up): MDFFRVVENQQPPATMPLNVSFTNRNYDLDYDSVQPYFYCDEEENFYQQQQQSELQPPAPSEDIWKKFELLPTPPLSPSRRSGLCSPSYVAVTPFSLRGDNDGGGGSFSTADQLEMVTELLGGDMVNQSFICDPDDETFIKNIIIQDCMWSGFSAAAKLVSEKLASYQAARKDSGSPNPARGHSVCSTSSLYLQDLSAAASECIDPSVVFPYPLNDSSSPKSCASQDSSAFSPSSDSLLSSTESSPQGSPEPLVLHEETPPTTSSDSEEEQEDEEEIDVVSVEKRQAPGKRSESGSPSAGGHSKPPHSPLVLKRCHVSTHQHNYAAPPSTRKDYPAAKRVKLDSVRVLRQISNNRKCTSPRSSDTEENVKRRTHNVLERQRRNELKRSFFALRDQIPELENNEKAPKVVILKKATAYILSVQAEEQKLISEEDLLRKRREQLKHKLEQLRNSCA
Experiment: ATG_Myc_CIS: Attagene CIS-FACTORIAL HepG2 Assay for human Myelocytomatosis (Myc) Proto-Oncogene Transcription Factor (AID 2282990)
Details: HepG2, Attagene cis-reporter transcription factor activity; actives raise or lower the signal
Method: ATG_CIS is a cell-based, multiplexed-readout assay that uses HepG2, a human liver cell line, with measurements taken at 24 hours after chemical dosing in a 24-well plate.ATG_Myc_CIS is one of 52 assay component(s) measured or calculated from the ATG_CIS assay. […] This assay endpoint, ATG_Myc_CIS, was analyzed with bidirectional fitting relative to DMSO as the negative control and baseline of activity. […]
Calls of active or inactive are those of the source. How the source made its calls: active means hit-call score of the fitted dose curve at least 0.9, where 1 is the maximum; inactive means score below 0.9.
parameter: AC50

Example entries and their recorded answers appear below.
[[record]]
compound = "CN(C)CCCN(C)CCCN(C)C"
parameter = "AC50"
reported_value = "inactive"

[[record]]
compound = "CCCCc1nc2cccnc2n1Cc1ccc(-c2ccccc2-c2nnn[nH]2)cc1"
parameter = "AC50"
reported_value = "inactive"

[[record]]
compound = "CCC(C)N(C)C(=O)c1cc2ccccc2c(-c2ccccc2Cl)n1 (configuration not stated)"
parameter = "AC50"
reported_value = "inactive"

[[record]]
compound = "CSc1ccc(Oc2ccc(S(N)(=O)=O)cc2CN(C)C)cc1C"
parameter = "AC50"
reported_value = "inactive"

[[record]]
compound = "O=C1NC(=O)C(c2ccccc2)(c2ccccc2)N1"
parameter = "AC50"
reported_value = "inactive"


Reported AC50 ( CCCCCCC(C=O)=Cc1ccccc1 ) = inactive

* * *

Target: Ratio of Nucleoli Translocation and Cytoplasm, AR (gene 367) (UniProt P10275)
Sequence (P10275 whole entry, looked up): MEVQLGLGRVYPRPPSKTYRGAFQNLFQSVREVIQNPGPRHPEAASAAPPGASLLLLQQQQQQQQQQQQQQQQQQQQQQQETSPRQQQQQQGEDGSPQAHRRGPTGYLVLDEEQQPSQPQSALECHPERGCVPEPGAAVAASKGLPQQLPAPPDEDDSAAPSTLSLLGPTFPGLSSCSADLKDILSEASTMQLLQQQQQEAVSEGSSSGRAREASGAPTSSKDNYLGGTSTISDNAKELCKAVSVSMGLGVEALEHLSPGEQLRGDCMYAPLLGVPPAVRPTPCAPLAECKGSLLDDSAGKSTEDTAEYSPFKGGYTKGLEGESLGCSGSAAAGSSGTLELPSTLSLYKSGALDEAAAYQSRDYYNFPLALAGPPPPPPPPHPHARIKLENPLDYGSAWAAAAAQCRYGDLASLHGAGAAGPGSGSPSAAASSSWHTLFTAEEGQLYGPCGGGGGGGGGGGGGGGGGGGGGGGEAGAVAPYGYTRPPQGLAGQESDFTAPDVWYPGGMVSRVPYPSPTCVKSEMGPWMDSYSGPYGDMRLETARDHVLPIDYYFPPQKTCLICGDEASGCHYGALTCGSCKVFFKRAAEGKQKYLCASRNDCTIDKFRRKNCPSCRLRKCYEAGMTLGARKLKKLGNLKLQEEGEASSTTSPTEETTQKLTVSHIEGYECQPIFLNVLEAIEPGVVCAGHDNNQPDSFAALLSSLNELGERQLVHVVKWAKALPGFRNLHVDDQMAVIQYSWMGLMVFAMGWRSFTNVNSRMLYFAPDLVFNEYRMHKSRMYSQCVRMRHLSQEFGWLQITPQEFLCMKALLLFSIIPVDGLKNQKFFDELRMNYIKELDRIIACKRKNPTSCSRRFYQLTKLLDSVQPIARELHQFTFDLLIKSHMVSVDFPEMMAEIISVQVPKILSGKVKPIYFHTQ
Assay: UPITT_HCI_U2OS_AR_TIF2_Nucleoli_Cytoplasm_Ratio_Antagonist: University of Pittsburgh U2OS Androgen Receptor-Transcriptional Intermediary Factor 2 (AR-TIF2) Antagonism High Content Imaging Assay for Ratio of Nucleoli Translocation and Cytoplasm (AID 2283999);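 note: antagonists lower the DHT-driven ratio of nucleolar to cytoplasmic red signal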
Inconclusive results are not listed. Activity calls are given as the source filed them. How the source made its calls: active means hit-call score of the fitted dose curve at least 0.9, where 1 is the maximum; inconclusive means response in the unintended direction; inactive means score below 0.9.
Assign a class; possible classes are active, inactive

[[record]]
molecule = "Cc1c(C)c2c(c(C)c1O)CCC(C)(COc1ccc(CC3SC(=O)NC3=O)cc1)O2 (stereo not given)"
label_class = "inactive"


Continue with the next molecule.
Exam item: Answer briefly: the call reported for Cc1cc(SC2=C(O)C[C@@](CCc3ccc(N)cc3)(C(C)C)OC2=O)c(C(C)(C)C)cc1CO in this assay.
Marked response: inactive

* * *

Assay: Tanguay_ZF_120hpf_YSE_legacy: (Legacy) Oregon State University Tanguay Lab 120 Hour Post-fertilization zebrafish Assay for Yolk Sac Edema (AID 2283634)
Description: Tanguay_ZF_120hpf_legacy is a whole embryo, multiplexed endpoint assay using zebrafish larvae exposed for 120 hours post fertilization on a 96-well plate.Tanguay_ZF_120hpf_YSE_legacy is one of one assay component(s) measured or calculated from the Tanguay_ZF_120hpf_legacy assay. […] This assay endpoint, Tanguay_ZF_120hpf_YSE_legacy, was analyzed in the positive analysis fitting direction relative to DMSO as the negative control and baseline of activity. […]
Records with an inconclusive call do not appear. The source made the active and inactive calls. Rule for the calls: active = hit-call score of the fitted dose curve at least 0.9, where 1 is the maximum; inconclusive = response in the unintended direction; inactive = score below 0.9.
Use one of these outcomes when replying: active, inactive

Use the examples below as a reference point.
[[record]]
compound = "Cc1ccc(-c2cc(C(F)(F)F)nn2-c2ccc(S(N)(=O)=O)cc2)cc1"
label_class = "inactive"

[[record]]
compound = "CC(=O)CC(c1ccccc1)c1c(O)c2ccccc2oc1=O (stereo not drawn)"
label_class = "inactive"

[[record]]
compound = "O=C1O[C@H]([C@H](O)CO)C(O)=C1O"
label_class = "inactive"

[[record]]
compound = "CCCCc1nc2cccnc2n1Cc1ccc(-c2ccccc2-c2nnn[nH]2)cc1"
label_class = "inactive"

[[record]]
compound = "OCC(CO)n1cnc(-c2ccc(F)cc2)c1-c1ccnc(Oc2ccccc2)n1"
label_class = "inactive"

[[record]]
compound = "CCCC(=O)O"
label_class = "inactive"

[[record]]
compound = "CC(C)COC(=O)CCCCC(=O)OCC(C)C"
label_class = "inactive"

[[record]]
compound = "CC(C)NCC(O)c1ccc(O)c(O)c1 (stereo not drawn)"
label_class = "inactive"

[[record]]
compound = "S=c1[nH]c2ccccc2s1"
label_class = "active"

[[record]]
compound = "O=C(NS(=O)(=O)/C=C/c1cccs1)c1ccc(F)cc1Br"
label_class = "inactive"


Exam item: How did this test come out for CCCCCCC(C=O)=Cc1ccccc1 ?
Marked response: inactive

Exam item: GET /call?item= CCN(CC)CCOc1ccc(C(=C(Cl)c2ccccc2)c2ccccc2)cc1 returns the recorded outcome of this test.
Marked response: inactive

Exam item: Record request — test call for C=CCCCCCCCCCCCC
Marked response: inactive

* * *

Read-out: Urokinase-type plasminogen activator receptor (uPAR), PLAUR (gene 5329)
Experiment: BSK_4H_uPAR: BioMAP Diversity Plus: 4H Assay for Urokinase-type plasminogen activator receptor (uPAR) Biomarker Activity (AID 2283030)
Details: primary human endothelial cells (HUVEC); actives raise or lower the signal
The source made the active and inactive calls. How the source made its calls: active means hit-call score of the fitted dose curve at least 0.9, where 1 is the maximum; inactive means score below 0.9.
Give one outcome, nothing more. List: Yes for active, No for inactive

Exam item: Answer briefly: the call reported for CCCCOC(=O)CCCCC(=O)OCCCC in this assay.
Marked response: No

Exam item: In this assay, the call recorded for CO[C@@H]1COCC[C@@H]1N[C@@H]1CC[C@@](C(=O)N2CCc3ncc(C(F)(F)F)cc3C2)(C(C)C)C1 was what?
Marked response: No

Exam item: Identify the outcome logged in this assay for the molecule shown: O=NO
Marked response: No

Exam item: Answer briefly: the call reported for O=C(Oc1ccccc1)c1cccc(C(=O)Oc2ccccc2)c1 in this assay.
Marked response: No

Exam item: Per the assay record, what outcome was assigned to O=C(O)c1cccnc1 ?
Marked response: No

Exam item: In this assay, the call recorded for O=C1c2c(O)cccc2Cc2cccc(O)c21 was what?
Marked response: No

Exam item: Please state the recorded outcome for this molecule: CC(=O)[C@@]1(O)CC[C@H]2[C@@H]3CCC4=CC(=O)CC[C@]4(C)[C@H]3CC[C@@]21C
Marked response: Yes

* * *

Read-out: Cytochrome P450 (CYP1A2), CYP1A2 (gene 1544)
Experiment: LTEA_HepaRG_CYP1A2: Life Technologies and Expression Analysis (LTEA) Assay for Cytochrome P450 (CYP1A2) using HepaRG (AID 2283479)
Conditions: mRNA level, 48 h; actives raise or lower the signal
Active and inactive are the calls of the source. The calls were made as follows: active = hit-call score of the fitted dose curve at least 0.9, where 1 is the maximum; inactive = score below 0.9.
Just give me one of these, please: True for active, False for inactive

For orientation, consider the following solved cases.
[[record]]
molecule = "CC(C)(C)c1ccccc1"
label_class = "False"

[[record]]
molecule = "CC(=O)O[C@]1(C(C)=O)CC[C@H]2[C@@H]3C=C(Cl)C4=CC(=O)[C@@H]5C[C@@H]5[C@]4(C)[C@H]3CC[C@@]21C"
label_class = "True"


Exam item: Per the records of this test, what outcome belongs to O=[Si]=O ?
Marked response: True

Exam item: Just curious, what result did CCCCc1nc2cccnc2n1Cc1ccc(-c2ccccc2-c2nnn[nH]2)cc1 get here?
Marked response: False

Exam item: Give the logged outcome of this assay for the following molecule: CC(=O)OCC(COC(C)=O)OC(C)=O
Marked response: False

Exam item: Please let me know the test result on file for COc1ccc(OC(F)(F)F)cc1CN[C@H]1CCCN[C@H]1c1ccccc1 .
Marked response: True

Exam item: Hey, what did the test say about O=C(NS(=O)(=O)/C=C/c1cccs1)c1ccc(F)cc1Br ?
Marked response: False

Exam item: For CC(C)c1cccc(C(C)C)c1 , which call appears in the assay record?
Marked response: False

Exam item: Returns: the outcome recorded for Cc1c(C)c2c(c(C)c1O)CCC(C)(COc1ccc(CC3SC(=O)NC3=O)cc1)O2 (stereo unspecified) in this assay.
Marked response: True

Exam item: Identify the outcome logged in this assay for the molecule shown: Oc1ccccc1O
Marked response: False

Exam item: I'd appreciate the recorded outcome for CN(C)C(=O)NC1(c2ccccc2)CCN(CCC[C@]2(c3ccc(Cl)c(Cl)c3)CCCN(C(=O)c3ccccc3)C2)CC1 from this test.
Marked response: False
